Task for the reader: assign each of the following sequences its reported binding signal.
TARGET OR TEST SYSTEM: MaxL homodimer (Homo sapiens, UniProt P61244 1-160)
Sequence (P61244 whole entry): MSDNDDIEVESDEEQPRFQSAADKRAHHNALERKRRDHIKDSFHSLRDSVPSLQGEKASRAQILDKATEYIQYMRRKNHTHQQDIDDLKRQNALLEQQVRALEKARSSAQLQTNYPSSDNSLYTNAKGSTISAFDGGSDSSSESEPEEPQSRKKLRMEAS
PROCEDURE DETAILS: universal protein-binding microarray (PBM); PBS-based mixture, 10 nM His-tagged protein dimer, 2% milk, 200 ng/uL BSA, 50 ng/uL salmon testes DNA, 0.02% TX-100; detection with Alexa 488 anti-His antibody;; high values mean tight binding;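 note: fluorescence intensity normalized to that of the highest-ranked 8-mer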
CONDITION SUMMARY: protein: recombinant; tags: C-terminal His-tag (pET21a); chain copies: 2; dsDNA, one strand shown
Over roughly 33,000 sequences, “normalized occupancy” has its median near 0.075; the highest 2% begin near 0.095. This excerpt belongs to a sample that is enriched for the highest values.
Answers are plain numbers, in normalized occupancy.

The following sequences have reported results that may help.
- CHAIN SEQUENCE: "TCACATAA"
  binding signal (normalized occupancy): 0.0812
- CHAIN SEQUENCE: "AGCGTGTC"
  binding signal (normalized occupancy): 0.0932
- CHAIN SEQUENCE: "GGATGCTA"
  binding signal (normalized occupancy): 0.0763
- CHAIN SEQUENCE: "CGTGGGAC"
  binding signal (normalized occupancy): 0.096
- CHAIN SEQUENCE: "GCGGGTCA"
  binding signal (normalized occupancy): 0.0811
- CHAIN SEQUENCE: "ACATGTAT"
  binding signal (normalized occupancy): 0.102
- CHAIN SEQUENCE: "AGATGTAT"
  binding signal (normalized occupancy): 0.0832
- CHAIN SEQUENCE: "GCATGTAA"
  binding signal (normalized occupancy): 0.0836
- CHAIN SEQUENCE: "ACATGTCT"
  binding signal (normalized occupancy): 0.0899
- CHAIN SEQUENCE: "CAGCACGA"
  binding signal (normalized occupancy): 0.0909

Would you be so kind as to report binding signal for each listed record?
1. ATGCTATA
2. ACGTGGCG
3. ATGGAAGC
4. CCGTGGCG
5. CCATGTCG
6. CTTCTTTA

Output line:
[0.0889, 0.107, 0.0783, 0.0765, 0.0843, 0.075]

====

TARGET OR TEST SYSTEM: MaxL homodimer (Homo sapiens, UniProt P61244 1-160)
PROCEDURE DETAILS: universal protein-binding microarray (PBM); PBS-based mixture, 10 nM His-tagged protein dimer, 2% milk, 200 ng/uL BSA, 50 ng/uL salmon testes DNA, 0.02% TX-100; detection with Alexa 488 anti-His antibody;; high values mean tight binding;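 note: fluorescence intensity normalized to that of the highest-ranked 8-mer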
CONDITION SUMMARY: protein: recombinant; tags: C-terminal His-tag (pET21a); chain copies: 2; dsDNA, one strand shown
Over roughly 33,000 sequences, “normalized occupancy” has its median near 0.075; the highest 2% begin near 0.095. The entries come from a sample that favours the highest values as a whole.
Mark true (1) for reported binding signal of 0.08 normalized occupancy or greater; mark false (0) for anything smaller.

Take a look at these entries with their results.
- CHAIN SEQUENCE: "ACACGCTG"
  CATEGORY LABEL: "true (1)"
- CHAIN SEQUENCE: "AACATGGA"
  CATEGORY LABEL: "true (1)"
- CHAIN SEQUENCE: "AAAGCACG"
  CATEGORY LABEL: "true (1)"
- CHAIN SEQUENCE: "AAACGTAA"
  CATEGORY LABEL: "false (0)"

Then this sequence:
Input line: hey, is binding signal for this one >= 0.08 normalized occupancy? CACATGGC
Output line: true (1)
